B1: KNL1 residues 2,026–2,342 [human] / Mis12 complex (Mis12C), full length: MIS12, PMF1, NSL1, DSN1 [human] (parent complex)
chain 1: SAQNEREKLQIKIDEMDKILKKIDNCLTEMETETKNLEDEEKNNPVEEWDSEMRAAEKELEQLKTEEEELQRNLLELEVQKEQTLAQIDFMQKQRNRTEELLDQLSLSEWDVVEWSDDQAVFTFVYDTIQLTITFEESVVGFPFLDKRYRKIVDVNFQSLLDEDQAPPSSLLVHKLIFQYVEEKESWKKTCTTQHQLPKMLEEFSLVVHHCRLLGEEIEYLKRWGPNYNLMNIDINNNELRLLFSSSAAFAKFEITLFLSAYYPSVPLPSTIQNHVGNTSQDDIATILSKVPLENNYLKNVVKQIYQDLFQDCHFYH
chain 2: MSVDPMTYEAQFFGFTPQTCMLRIYIAFQDYLFEVMQAVEQVILKKLDGIPDCDISPVQIRKCTEKFLCFMKGHFDNLFSKMEQLFLQLILRIPSNILLPEDKCKETPYSEEDFQHLQKEIEQLQEKYKTELCTKQALLAELEEQKIVQAKLKQTLTFFDELHNVGRDHGTSDFRESLVSLVQNSRKLQNIRDNVEKESKRLKIS
chain 3: MAEASSANLGSGCEEKRHEGSSSESVPPGTTISRVKLLDTMVDTFLQKLVAAGSYQRFTDCYKCFYQLQPAMTQQIYDKFIAQLQTSIREEISDIKEEGNLEAVLNALDKIVEEGKVRKEPAWRPSGIPEKDLHSVMAPYFLQQRDTLRRHVQKQEAENQQLADAVLAGRRQVEELQLQVQAQQQAWQALHREQRELVAVLREPE
chain 4: MAGSPELVVLDPPWDKELAAGTESQALVSATPREDFRVRCTSKRAVTEMLQLCGRFVQKLGDALPEEIREPALRDAQWTFESAVQENISINGQAWQEASDNCFMDSDIKVLEDQFDEIIVDIATKRKQYPRKILECVIKTIKAKQEILKQYHPVVHPLDLKYDPDPAPHMENLKCRGETVAKEISEAMKSLPALIEQGEGFSQVLRMQPVIHLQRIHQEVFSSCHRKPDAKPENFITQIETTPTETASRKTSDMVLKRKQTKDCPQRKWYPLRPKKINLDT
chain 5: MTSVTRSEIIDEKGPVMSKTHDHQLESSLSPVEVFAKTSASLEMNQGVSEERIHLGSSPKKGGNCDLSHQERLQSKSLHLSPQEQSASYQDRRQSWRRASMKETNRRKSLHPIHQGITELSRSISVDLAESKRLGCLLLSSFQFSIQKLEPFLRDTKGFSLESFRAKASSLSEELKHFADGLETDGTLQKCFEDSNGKASDFSLEASVAEMKEYITKFSLERQTWDQLLLHYQQEAKEILSRGSTEAKITEVKVEPMTYLGSSQNEVLNTKPDYQKILQNQSKVFDCMELVMDELQGSVKQLQAFMDESTQCFQKVSVQLGKRSMQQLDPSPARKLLKLQLQNPPAIHGSGSGSCQ

Variants of: B1
experiment: ITC; syringe KNL1^M2; cell Mis12C^WT; parent: 1.56 nM
readout.kind: Kd (nM)
Express it in nM; write the number only.

Enquiry: Entry chain 1 M231A, chain 1 S247W, chain 1 F250A, chain 1 K252E : reported Kd = ?
Return: 109
